- Target System: activated ERK2 (Homo sapiens (Human))
- Experimental Protocol: Activated ERK2 (20 pM) Kinase Assay (AlphaScreen, ERKtide phosphorylation)
- Type: biochemical
- Run Parameters: 0.02 nM ERK2, 400 nM ERKtide peptide, 35 μM ATP, 30 min preincubation
Listing: pIC50 of selected compounds
Keep it numeric: pIC50 is minus log10 of the concentration in mol/L.

Recorded results for 8 compounds are shown here.
Nc1ncc(C2CCOCC2)nc1-c1ccc(C(=O)N[C@H](CO)c2ccccc2)cc1
9.20
COC(=O)NC[C@@H](NC(=O)c1ccc(-c2nc(C3CCOCC3)cnc2N)cc1F)c1cccc(Cl)c1
9.48
CNC[C@@H](NC(=O)c1ccc(-c2nc([C@H]3CC[C@H](OC)CC3)cnc2N)cc1F)c1cccc(Br)c1
10.40
Nc1ncc(C2CCOCC2)nc1-c1ccc(C(=O)N[C@H](CNCCF)c2cc(F)cc(Br)c2)c(F)c1
10.13
Nc1ncc([C@H]2CC[C@@H](F)CC2)nc1-c1ccc(C(=O)N[C@H](CO)c2cccc(Cl)c2)c(F)c1
9.43
CSc1cc(F)cc([C@@H](CO)NC(=O)c2ccc(-c3nc(C4CCOCC4)cnc3N)cc2F)c1
11.08
CNC[C@@H](NC(=O)c1ccc(-c2nc([C@@H]3CC[C@@H](O)[C@@H](F)C3)cnc2N)cc1F)c1cc(F)cc(Br)c1
10.64
COC(=O)NC[C@@H](NC(=O)c1ccc(-c2nc(C3CCOCC3)cnc2N)cc1F)c1cc(F)cc(Br)c1
10.03

Quote activated ERK2 (Homo sapiens (Human)) pIC50 for entry Nc1ncc(C2=CCCCC2)nc1-c1ccc(C(=O)N[C@H](CO)c2cccc(Cl)c2)c(F)c1 .
9.44

Quote activated ERK2 (Homo sapiens (Human)) pIC50 for entry Cc1cc(-c2cc(C3CCOCC3)cnc2N)ccc1C(=O)N[C@H](CO)c1ccccc1 .
9.16

Quote activated ERK2 (Homo sapiens (Human)) pIC50 for entry CNC[C@@H](NC(=O)c1ccc(-c2nc([C@H]3CC[C@H](O)CC3)cnc2N)cc1F)c1cc(F)cc(Br)c1 .
10.74

Quote activated ERK2 (Homo sapiens (Human)) pIC50 for entry Cc1c(-c2cnc(N)c(-c3ccc(C(=O)N[C@H](C)c4cc(F)cc(S(C)(=O)=O)c4)c(F)c3)c2)cnn1C(F)F .
9.84

Quote activated ERK2 (Homo sapiens (Human)) pIC50 for entry CC(=O)NC[C@@H](NC(=O)c1ccc(-c2nc([C@H]3CC[C@H](O)CC3)cnc2N)cc1F)c1cccc(Cl)c1 .
9.62

Quote activated ERK2 (Homo sapiens (Human)) pIC50 for entry Cn1nncc1-c1cnc(N)c(-c2ccc(C(=O)N[C@H](CO)c3cc(F)cc(I)c3)c(F)c2)c1 .
10.80

Quote activated ERK2 (Homo sapiens (Human)) pIC50 for entry Cc1c(-c2cnc(N)c(-c3ccc(C(=O)N[C@H](CO)c4cccc(C(F)F)c4)c(F)c3)c2)cnn1C .
10.43

====

- Target System: activated ERK2 (Homo sapiens (Human), UniProt P28482)
- Sequence (P28482 whole entry): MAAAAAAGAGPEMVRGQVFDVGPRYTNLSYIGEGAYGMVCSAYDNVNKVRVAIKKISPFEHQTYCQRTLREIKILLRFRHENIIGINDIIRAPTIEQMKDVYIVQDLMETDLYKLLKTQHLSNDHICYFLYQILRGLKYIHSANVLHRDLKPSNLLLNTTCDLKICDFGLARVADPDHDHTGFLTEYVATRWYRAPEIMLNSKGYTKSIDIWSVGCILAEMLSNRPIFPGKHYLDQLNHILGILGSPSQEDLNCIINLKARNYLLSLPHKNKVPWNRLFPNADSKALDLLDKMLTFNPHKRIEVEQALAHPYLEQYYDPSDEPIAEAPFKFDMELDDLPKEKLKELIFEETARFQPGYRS
- Experimental Protocol: Activated ERK2 kinase assay, ERK2 New conditions (AlphaScreen, ERKtide phosphorylation)
- Assay type: biochemical
- Run Parameters: 0.25 nM ERK2, 200 nM ERKtide peptide, 35 μM ATP, 30 min preincubation
Recorded Endpoint: pIC50
Keep it numeric: pIC50 is minus log10 of the concentration in mol/L.

CN1CC[C@@H](c2cnc(N)c(-c3ccc(C(=O)N[C@H](CO)c4cccc(Cl)c4)c(F)c3)c2)CC1=O [Example 27]
8.39
CNC(=O)c1ccc(-c2nc(C3CCOCC3)cnc2N)cc1F [Example 320]
6.45
CC(=O)N1CCCC(c2cnc(N)c(-c3ccc(C(=O)N[C@H](CO)c4ccccc4)c(F)c3)n2)C1 (stereo partly drawn) [Example 215]
7.55
Nc1ncc(C2=CCCCC2)nc1-c1ccc(C(=O)NCc2ccccc2)c(F)c1 [Example 424]
6.81
Cn1cncc1-c1cnc(N)c(-c2ccc(C(=O)N[C@H](CO)c3cccc(F)c3)c(F)c2)c1 [Example 234]
8.83
NC[C@@H](NC(=O)c1ccc(-c2nc(C3CCC(F)(F)CC3)cnc2N)cc1F)c1cccc(Cl)c1 [Example 197]
8.68

Supply reported pIC50 belonging to this compound: CN1CC[C@H](c2cnc(N)c(-c3ccc(C(=O)N[C@H](CO)c4cccc(Cl)c4)c(F)c3)c2)CC1=O [Example 28]
8.59

Supply reported pIC50 belonging to this compound: COC(=O)N1CCC(c2cnc(N)c(-c3ccc(C(=O)N[C@H](CO)c4cccc(Cl)c4)c(F)c3)n2)CC1 [Example 59]
9.46

Supply reported pIC50 belonging to this compound: Nc1ncc([C@H]2CNC(=O)C2)cc1-c1ccc(C(=O)N[C@H](CO)c2ccccc2)c(F)c1 [Example 220]
7.14

Supply reported pIC50 belonging to this compound: Cn1cc(-c2cnc(N)c(-c3ccc(C(=O)N[C@H](CO)c4cccc(Cl)c4)c(F)c3)c2)cn1 [Example 263]
9.72

Supply reported pIC50 belonging to this compound: CS(=O)(=O)c1cc(F)cc(CNC(=O)c2ccc(-c3nc(C4CC4)cnc3N)cc2F)c1 [Example 286]
8.41

Supply reported pIC50 belonging to this compound: Nc1ncc([C@@H]2CCS(=O)(=O)C2)cc1-c1ccc(C(=O)NCc2ccccc2)c(F)c1 (single isomer, unassigned) [Example 5]
6.56

Supply reported pIC50 belonging to this compound: CS(=O)(=O)CCc1cnc(N)c(-c2ccc(C(=O)NCc3ccccc3)c(F)c2)n1 [Example 21]
5.57

Supply reported pIC50 belonging to this compound: Cn1cc(-c2cnc(N)c(-c3ccc(C(=O)NCc4cccc(Br)c4)c(F)c3)c2)cn1 [Example 246]
8.82

Supply reported pIC50 belonging to this compound: CN1CC(c2cnc(N)c(-c3ccc(C(=O)N[C@H](CO)c4cccc(Cl)c4)c(F)c3)c2)CC1=O (stereo partly drawn) [Example 42]
8.26

Supply reported pIC50 belonging to this compound: Nc1ncc(C2CCS(=O)(=O)C2)cc1-c1ccc(C(=O)NCc2ccccc2)c(F)c1 (racemic) [Example 4]
6.50

Sourced from patent US9242996B2
